- TARGET DESC: Alpha2B (Homo sapiens, UniProt P18089)
- Construct: NIMH PDSP
- Sequence (P18089 whole entry): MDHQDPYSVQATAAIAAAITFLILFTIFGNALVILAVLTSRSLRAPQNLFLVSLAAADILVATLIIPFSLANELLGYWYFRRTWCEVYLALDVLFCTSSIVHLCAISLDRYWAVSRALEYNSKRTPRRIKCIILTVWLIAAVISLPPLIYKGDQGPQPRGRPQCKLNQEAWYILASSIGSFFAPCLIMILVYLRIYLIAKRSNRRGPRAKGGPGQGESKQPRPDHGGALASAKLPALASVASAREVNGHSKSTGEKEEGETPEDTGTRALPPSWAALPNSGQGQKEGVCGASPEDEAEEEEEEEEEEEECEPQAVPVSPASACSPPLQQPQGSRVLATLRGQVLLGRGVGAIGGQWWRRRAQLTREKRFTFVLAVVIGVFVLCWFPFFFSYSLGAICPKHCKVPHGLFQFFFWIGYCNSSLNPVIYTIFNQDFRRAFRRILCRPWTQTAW
- METHOD DESCRIPTION: NIMH PDSP radioligand binding, membranes
- RUN PARAMETERS: read-out: Ki
MEASURED QUANTITY: pKi
When answering, recall that pKi equals minus log10 of the concentration in mol/L, and write that number alone.

Exam item: Entry c1ccc2c(c1)N=C(N1CCNCC1)c1ccccc1N2 [C21] has what pKi?
Marked response: 6.32

* * *

- TARGET DESC: 5-HT1B (Homo sapiens)
- Construct: NIMH PDSP
- Sequence (P28222 whole entry, species assumed): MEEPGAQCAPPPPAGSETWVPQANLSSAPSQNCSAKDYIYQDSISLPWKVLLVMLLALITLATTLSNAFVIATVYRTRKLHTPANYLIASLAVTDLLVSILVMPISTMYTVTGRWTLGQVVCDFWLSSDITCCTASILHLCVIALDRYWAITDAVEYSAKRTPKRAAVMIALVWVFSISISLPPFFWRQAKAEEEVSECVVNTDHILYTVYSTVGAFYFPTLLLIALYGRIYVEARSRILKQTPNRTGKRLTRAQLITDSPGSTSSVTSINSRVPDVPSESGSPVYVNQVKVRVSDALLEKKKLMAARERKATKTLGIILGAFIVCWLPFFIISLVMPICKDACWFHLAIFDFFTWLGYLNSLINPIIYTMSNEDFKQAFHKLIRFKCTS
- METHOD DESCRIPTION: NIMH PDSP radioligand binding, membranes
- RUN PARAMETERS: read-out: Ki
MEASURED QUANTITY: Ki (µM)
# value in µM; strip the unit string

Exam item: Entry c1ccc2c(c1)N=C(N1CCNCC1)c1ccccc1N2 has what Ki?
Marked response: 3.64

* * *

We begin with a simple list: items and their reported pEC50.
- TARGET DESC: hM4Di (Homo sapiens, UniProt P08173, A203G/Y113C)
- Sequence (P08173 whole entry Y113C/A203G): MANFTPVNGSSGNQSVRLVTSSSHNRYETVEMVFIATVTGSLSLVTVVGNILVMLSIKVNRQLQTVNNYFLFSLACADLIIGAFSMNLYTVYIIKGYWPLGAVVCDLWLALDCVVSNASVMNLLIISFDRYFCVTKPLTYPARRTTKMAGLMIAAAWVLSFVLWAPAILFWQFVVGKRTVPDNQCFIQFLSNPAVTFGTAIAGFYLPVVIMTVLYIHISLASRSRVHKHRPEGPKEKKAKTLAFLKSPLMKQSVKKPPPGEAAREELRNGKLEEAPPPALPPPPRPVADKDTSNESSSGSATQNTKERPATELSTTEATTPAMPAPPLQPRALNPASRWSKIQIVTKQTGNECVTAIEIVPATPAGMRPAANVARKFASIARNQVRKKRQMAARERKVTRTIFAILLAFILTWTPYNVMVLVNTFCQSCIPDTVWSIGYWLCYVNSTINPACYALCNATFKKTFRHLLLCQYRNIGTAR
- METHOD DESCRIPTION: ERK1/2 phosphorylation (pERK1/2) assay
When answering, recall that pEC50 equals minus log10 of the concentration in mol/L, and write that number alone.

Exam item: Form field - read-out: pEC50; system: hM4Di (Homo sapiens, UniProt P08173, A203G/Y113C); submitted item: c1ccc2c(c1)N=C(N1CCNCC1)c1ccccc1N2 [C21]
Marked response: 7.77

New cases:
Exam item: Form field - read-out: pEC50; system: hM4Di (Homo sapiens, UniProt P08173, A203G/Y113C); submitted item: CN1CCN(C2=Nc3ccccc3Cc3ccccc32)CC1 [perlapine]
Marked response: 7.27

* * *

- TARGET DESC: Alpha2A (Homo sapiens)
- Construct: NIMH PDSP
- Sequence (P08913 whole entry): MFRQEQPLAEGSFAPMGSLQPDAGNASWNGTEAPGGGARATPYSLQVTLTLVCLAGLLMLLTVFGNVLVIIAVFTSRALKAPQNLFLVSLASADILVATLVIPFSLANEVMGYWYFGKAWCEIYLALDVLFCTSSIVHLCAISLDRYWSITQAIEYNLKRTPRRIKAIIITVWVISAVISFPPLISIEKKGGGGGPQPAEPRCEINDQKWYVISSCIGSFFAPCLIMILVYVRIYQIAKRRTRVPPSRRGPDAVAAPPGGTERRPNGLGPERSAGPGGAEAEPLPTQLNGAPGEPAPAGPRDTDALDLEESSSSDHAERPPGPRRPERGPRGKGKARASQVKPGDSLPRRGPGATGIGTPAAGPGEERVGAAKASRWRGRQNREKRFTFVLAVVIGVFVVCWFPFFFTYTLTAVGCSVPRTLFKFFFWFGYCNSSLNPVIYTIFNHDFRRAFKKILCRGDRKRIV
- METHOD DESCRIPTION: NIMH PDSP radioligand binding, membranes
- RUN PARAMETERS: read-out: Ki
MEASURED QUANTITY: pKi
When answering, recall that pKi equals minus log10 of the concentration in mol/L, and write that number alone.

Exam item: Entry c1ccc2c(c1)N=C(N1CCNCC1)c1ccccc1N2 [C21] has what pKi?
Marked response: 5.75

* * *

- TARGET DESC: M5 (Homo sapiens)
- Sequence (P08912 whole entry): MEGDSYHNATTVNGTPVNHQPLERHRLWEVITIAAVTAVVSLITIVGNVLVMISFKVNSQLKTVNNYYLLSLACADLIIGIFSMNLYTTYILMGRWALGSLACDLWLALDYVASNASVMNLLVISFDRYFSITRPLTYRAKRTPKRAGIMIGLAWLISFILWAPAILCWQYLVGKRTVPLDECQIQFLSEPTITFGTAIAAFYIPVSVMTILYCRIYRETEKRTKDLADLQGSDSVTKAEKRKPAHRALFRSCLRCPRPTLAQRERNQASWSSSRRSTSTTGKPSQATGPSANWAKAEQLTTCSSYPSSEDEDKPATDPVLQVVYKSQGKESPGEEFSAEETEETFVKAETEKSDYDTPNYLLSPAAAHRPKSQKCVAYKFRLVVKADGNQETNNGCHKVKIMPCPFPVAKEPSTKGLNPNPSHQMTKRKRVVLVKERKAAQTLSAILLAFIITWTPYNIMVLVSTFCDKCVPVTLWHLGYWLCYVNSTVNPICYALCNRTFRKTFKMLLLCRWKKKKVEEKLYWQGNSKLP
- METHOD DESCRIPTION: NIMH PDSP radioligand binding, membranes
- RUN PARAMETERS: read-out: Ki
MEASURED QUANTITY: Ki (nM)
# value in nM; strip the unit string

Exam item: Entry c1ccc2c(c1)N=C(N1CCNCC1)c1ccccc1N2 has what Ki?
Marked response: 421

* * *

- TARGET DESC: 5-HT1E (Homo sapiens)
- Sequence (P28566 whole entry, species assumed): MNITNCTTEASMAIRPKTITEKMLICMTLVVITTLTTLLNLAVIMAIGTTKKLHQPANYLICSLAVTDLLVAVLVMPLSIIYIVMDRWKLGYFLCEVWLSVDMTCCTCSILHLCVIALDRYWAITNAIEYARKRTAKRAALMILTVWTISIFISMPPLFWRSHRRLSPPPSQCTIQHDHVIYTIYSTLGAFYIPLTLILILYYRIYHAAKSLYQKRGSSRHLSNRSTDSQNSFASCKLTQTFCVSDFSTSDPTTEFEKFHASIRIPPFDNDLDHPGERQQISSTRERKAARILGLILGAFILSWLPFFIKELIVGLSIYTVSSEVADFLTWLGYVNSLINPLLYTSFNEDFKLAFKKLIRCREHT
- METHOD DESCRIPTION: NIMH PDSP radioligand binding, membranes
- RUN PARAMETERS: read-out: Ki
MEASURED QUANTITY: pKi
When answering, recall that pKi equals minus log10 of the concentration in mol/L, and write that number alone.

Exam item: Entry c1ccc2c(c1)N=C(N1CCNCC1)c1ccccc1N2 has what pKi?
Marked response: 6.69

* * *

- TARGET DESC: Beta1 (Homo sapiens, UniProt P08588)
- Construct: NIMH PDSP
- Sequence (P08588 whole entry): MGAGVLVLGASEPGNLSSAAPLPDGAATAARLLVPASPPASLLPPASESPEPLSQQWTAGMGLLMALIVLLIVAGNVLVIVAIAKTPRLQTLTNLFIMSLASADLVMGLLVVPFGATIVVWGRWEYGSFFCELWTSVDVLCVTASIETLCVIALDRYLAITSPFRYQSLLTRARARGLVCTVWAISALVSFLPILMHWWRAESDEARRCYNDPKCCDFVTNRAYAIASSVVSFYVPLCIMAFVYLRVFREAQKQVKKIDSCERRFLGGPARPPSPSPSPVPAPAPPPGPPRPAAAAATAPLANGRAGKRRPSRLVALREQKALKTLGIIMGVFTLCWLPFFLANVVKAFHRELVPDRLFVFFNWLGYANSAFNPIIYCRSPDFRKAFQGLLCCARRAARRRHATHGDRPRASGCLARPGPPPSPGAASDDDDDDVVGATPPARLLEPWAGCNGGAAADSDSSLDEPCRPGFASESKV
- METHOD DESCRIPTION: NIMH PDSP radioligand binding, membranes
- RUN PARAMETERS: read-out: Ki
pKi: −log10 of the molar value.
MEASURED QUANTITY: pKi

Exam item: Entry c1ccc2c(c1)N=C(N1CCNCC1)c1ccccc1N2 has what pKi?
Marked response: < 5.00
